These entries and their values trace back to PubChem BioAssay (NCI).

Test system: HL-60(TB) leukemia
Protocol summary: NCI-60 one-dose screen, 48 h
Measurement setup: 10 µM unless noted
About 83,000 compounds went through this panel and 20% of them were active in at least one assay; those are over-represented in the sample as a whole. Active and inactive are the calls of the source. The calls were made as follows: active = growth percent below 10; inactive = the rest.
The categories you may choose from are active, inactive

Before answering, review these 2 worked examples.
1) CC(C)(C)NC(=O)C(OC(=O)c1cccc(Cl)c1)c1ccc(Cl)cc1 (configuration not stated)	inactive
2) Clc1ccccc1N=Cc1ccc2c(c1)OCO2	inactive

Ask | State the result this test recorded for `O=C(O)CCCCSCCCCC(=O)O` .
Reply | inactive

Ask | Would you mind telling me which call this test gave `Cc1ccc(Cc2cnc(NC(=O)/C=C/c3cccc(C)c3)s2)cc1` ?
Reply | active

Ask | Record lookup: outcome of this test for `O=C1NC(=O)/C(=C/c2c(-c3ccccc3)nc3sc(COc4ccccc4)nn23)S1` ?
Reply | inactive

Ask | Could you please tell me the result logged for `Oc1ccccc1\C=N/N=C/C=C/c1ccccc1` in this assay?
Reply | inactive

Ask | Record lookup: outcome of this test for `Cc1cnc(N)s1` ?
Reply | inactive
